- target: T1, dimeric human PRLR (hPRLR.mFc; SEQ ID NO:402) (Homo sapiens, UniProt P16471)
- T1 construct: dimeric (hPRLR.mFc)
- T1 sequence (P16471 with tags, fused parts or gaps): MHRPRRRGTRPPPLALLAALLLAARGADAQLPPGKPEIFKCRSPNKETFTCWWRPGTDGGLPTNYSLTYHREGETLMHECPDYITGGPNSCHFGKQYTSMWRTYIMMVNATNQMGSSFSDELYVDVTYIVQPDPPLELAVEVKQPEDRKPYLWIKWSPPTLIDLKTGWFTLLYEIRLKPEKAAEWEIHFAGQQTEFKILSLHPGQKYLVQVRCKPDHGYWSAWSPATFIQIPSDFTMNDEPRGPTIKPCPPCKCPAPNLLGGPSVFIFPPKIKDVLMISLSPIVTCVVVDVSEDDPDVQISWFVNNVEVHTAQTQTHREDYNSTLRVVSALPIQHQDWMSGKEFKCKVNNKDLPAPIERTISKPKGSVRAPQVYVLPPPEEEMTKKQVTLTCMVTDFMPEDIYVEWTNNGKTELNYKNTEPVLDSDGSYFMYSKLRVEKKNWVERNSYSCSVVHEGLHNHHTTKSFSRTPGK
- assay: Surface plasmon resonance (Biacore T200), antibody-capture format
- Assay type: binding
- test settings: 37° C., analyte hPRLR.mFc
A collection of molecules and their measured kd
Respond with the bare value in s⁻¹.

molecule: H1H6804P: fully human anti-PRLR antibody, human IgG1 Fc; HCVR/LCVR SEQ ID NOs 242/250 (antibody, V domains shown) VH: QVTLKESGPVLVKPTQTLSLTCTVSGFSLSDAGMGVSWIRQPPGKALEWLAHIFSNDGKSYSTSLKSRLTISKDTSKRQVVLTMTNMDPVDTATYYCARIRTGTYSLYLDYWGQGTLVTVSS VL: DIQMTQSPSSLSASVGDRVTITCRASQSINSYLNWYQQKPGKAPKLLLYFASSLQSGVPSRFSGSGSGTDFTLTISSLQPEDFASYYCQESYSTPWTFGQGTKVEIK
unit text: s⁻¹
kd: 0.000205

Inquiry: Give the measured kd for H1H6801P: fully human anti-PRLR antibody, human IgG1 Fc; HCVR/LCVR SEQ ID NOs 210/218 (antibody, V domains shown) VH: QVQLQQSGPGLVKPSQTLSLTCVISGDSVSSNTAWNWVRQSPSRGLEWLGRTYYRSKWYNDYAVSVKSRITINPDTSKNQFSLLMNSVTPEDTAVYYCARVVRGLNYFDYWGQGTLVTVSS VL: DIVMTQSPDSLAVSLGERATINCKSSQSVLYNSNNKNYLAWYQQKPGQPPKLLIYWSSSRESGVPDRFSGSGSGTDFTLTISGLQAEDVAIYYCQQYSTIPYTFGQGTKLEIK
Reply text: 0.000221
